Target: Serine protease 1 (Bos taurus, UniProt P00760)
Sequence (P00760 whole entry): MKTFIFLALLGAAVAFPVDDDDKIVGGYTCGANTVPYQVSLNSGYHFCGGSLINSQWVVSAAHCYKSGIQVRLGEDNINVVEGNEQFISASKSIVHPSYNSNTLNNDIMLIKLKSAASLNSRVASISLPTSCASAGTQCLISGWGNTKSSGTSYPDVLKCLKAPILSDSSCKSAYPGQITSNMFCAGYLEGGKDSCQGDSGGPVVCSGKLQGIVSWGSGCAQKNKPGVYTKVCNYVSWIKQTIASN
Assay: Inhibitory concentration against bovine trypsin; NT=Not determined
assay-endpoint: IC50 (µM)
Give your result in µM as a bare value.

Ask: Provide only the value of recorded IC50 for CN[C@H](Cc1ccccc1)C(=O)N1CCC[C@H]1C(=O)N[C@@H](CCCN=C(N)N)Cc1nc2ccccc2s1
Result: 32

----------
Assay: Oral bioavailability was determined in conscious rat after 10 mg/kg dosage through gavage
Type: ADME, organism-based
Details: in vivo
assay-endpoint: bioavailability (%)
Give your result in % as a bare value.

Ask: Provide only the value of recorded bioavailability for CN[C@H](Cc1ccccc1)C(=O)N1CCC[C@H]1C(=O)NC(CCCN=C(N)N)C(=O)c1nc2ccc(C(=O)O)cc2s1 (stereo partly specified)
Result: 3

----------
Molecular target: Prothrombin (Homo sapiens)
Experiment: Binding affinity determined against human alpha thrombin
Below is a list of entries, each paired with its recorded pKi value.
Units for pKi: none; it is -log10 of a concentration expressed in mol/L.

Some solved entries appear below for comparison.
compound: CN[C@H](Cc1ccccc1)C(=O)N1CCC[C@H]1C(=O)NC(CCCN=C(N)N)C(=O)c1nc2ccccc2[nH]1 (some centres not stated)
assay-endpoint: pKi
recorded-measurement: 8.02

compound: N=C(N)NCCC[C@H](NC(=O)CN1CCCC[C@H](NS(=O)(=O)Cc2ccccc2)C1=O)C(=O)c1nc2ccccc2s1
assay-endpoint: pKi
recorded-measurement: 7.80

compound: CN[C@H](Cc1ccc(F)cc1)C(=O)N1CCC[C@H]1C(=O)NC(CCCN=C(N)N)C(=O)c1nc2ccccc2s1 (some centres not stated)
assay-endpoint: pKi
recorded-measurement: 9.92

compound: CNC1(C(=O)N2CCC[C@H]2C(=O)NC(CCCN=C(N)N)C(=O)c2nc3ccccc3s2)CCCCC1 (some centres not stated)
assay-endpoint: pKi
recorded-measurement: 7.14

compound: CN[C@H](Cc1ccccc1)C(=O)N1CCC[C@H]1C(=O)NC(C(=O)c1nc2ccccc2s1)C1CCC(N)CC1 (some centres not stated)
assay-endpoint: pKi
recorded-measurement: 6.96

Ask: Please indicate recorded pKi of CN[C@H](Cc1ccccc1)C(=O)N1CCC[C@H]1C(=O)N[C@@H](C[C@H]1CCCN(C(=N)N)C1)C(=O)c1nc2ccccc2s1 measured with Prothrombin (Homo sapiens).
Result: 7.00

Ask: Please indicate recorded pKi of CN[C@H](Cc1c(F)c(F)c(F)c(F)c1F)C(=O)N1CCC[C@H]1C(=O)NC(CCCN=C(N)N)C(=O)c1nc2ccccc2s1 (some centres not stated) measured with Prothrombin (Homo sapiens).
Result: 8.42

----------
Tested on: Cavia porcellus
Test: Percent change in blood pressure in guinea pig at 10 mg/kg dose
Below is a list of entries, each paired with its recorded Delta BP value.
Give your result in % as a bare value.

compound: CN[C@H](Cc1ccccc1)C(=O)N1CCC[C@H]1C(=O)N[C@H](C=O)CCCNC(=N)N (stereo in doubt; 1b)
Delta BP / %: -21

Ask: Provide only the value of recorded Delta BP for CN[C@H](Cc1ccccc1)C(=O)N1CCC[C@H]1C(=O)N[C@@H](CCCNC(=N)N)C(=O)c1nccn1C
Result: -68

Ask: Provide only the value of recorded Delta BP for CN[C@H](Cc1ccccc1)C(=O)N1CCC[C@H]1C(=O)NC(CCCN=C(N)N)C(=O)c1nc2ccc(C(=O)OC)cc2s1 (stereo partly specified)
Result: -16

Ask: Provide only the value of recorded Delta BP for N=C(N)NCCCC(NC(=O)[C@@H]1CCCN1C(=O)C(O)C1c2ccccc2-c2ccccc21)C(=O)c1nc2ccccc2s1 (stereo partly specified)
Result: -71

----------
System: Canis familiaris
Test: In vivo effective intravenous dose for that reduces thrombus weight accumulation on a silk fiber by 50% was determined in Dog arteriovenous shunt model
Type: functional
Details: Canis lupus familiaris
assay-endpoint: ED50 (mg/kg)
Give your result in mg/kg as a bare value.

Some solved entries appear below for comparison.
molecule: CN[C@H](Cc1ccccc1)C(=O)N1CCC[C@H]1C(=O)N[C@@H](CCCN=C(N)N)C(=O)c1nc2ccccc2s1
subject-of-test: Canis familiaris
ED50 / mg/kg: 0.46
--
molecule: CN[C@H](Cc1ccccc1)C(=O)N1CCC[C@H]1C(=O)N[C@H](C=O)CCCNC(=N)N (stereo in doubt; 1b)
subject-of-test: Canis familiaris
ED50 / mg/kg: 0.66
--
molecule: CN[C@H](Cc1ccccc1)C(=O)N1CCC[C@H]1C(=O)NC(CCCN=C(N)N)C(=O)c1nc2ccc(C(=O)O)cc2s1 (some centres undefined)
subject-of-test: Canis familiaris
ED50 / mg/kg: 0.14

Let us move to another entry and its ED50.
Ask: Provide only the value of recorded ED50 for CN[C@H](Cc1ccccc1)C(=O)N1CCC[C@H]1C(=O)NC(CCCN=C(N)N)C(=O)c1nc2ccc(C(=O)OC)cc2s1 (some centres undefined)
Result: 0.47

----------
Molecular target: Prothrombin (Homo sapiens, UniProt P00734)
Assay: Inhibitory concentration against human alpha thrombin
Below is a list of entries, each paired with its recorded IC50 value.
Give your result in nM as a bare value.

compound: CN[C@@H](C(=O)N1CCC[C@H]1C(=O)NC(CCCN=C(N)N)C(=O)c1nc2ccccc2s1)C1CCCCC1 (some centres not stated)
recorded-measurement: 5.3
//
compound: CN[C@H](Cc1ccccc1)C(=O)N1CCC[C@H]1C(=O)NC(CCCN=C(N)N)C(=O)c1nc2ccccc2o1 (some centres not stated)
recorded-measurement: 110
//
compound: CN[C@H](Cc1ccccc1)C(=O)N1CCC[C@H]1C(=O)NC(CCCN=C(N)N)C(=O)c1nc2ccccc2[nH]1 (some centres not stated)
recorded-measurement: 360
//
compound: CN[C@H](Cc1ccccc1)C(=O)N1CCC[C@H]1C(=O)N[C@H](C(=O)c1nc2ccccc2s1)[C@H]1CC[C@H](CN)CC1
recorded-measurement: 17000
//
compound: CCCC(CCC)C(=O)N[C@@H](CC(=O)OC)C(=O)N1CCC[C@H]1C(=O)N[C@@H](CCCNC(=N)N)C(=O)c1nc2ccccc2s1
recorded-measurement: 56
//
compound: CNC1(C(=O)N2CCC[C@H]2C(=O)NC(CCCN=C(N)N)C(=O)c2nc3ccccc3s2)CCCCC1 (some centres not stated)
recorded-measurement: 490

Ask: Please indicate recorded IC50 of CN[C@H](Cc1ccccc1)C(=O)N1CCC[C@H]1C(=O)N[C@@H](CCCNC(=N)N)C(=O)c1nccs1 measured with Prothrombin (Homo sapiens, UniProt P00734).
Result: 19

----------
Below is a list of entries, each paired with its recorded Ki value.
Target: Prothrombin (Homo sapiens, UniProt P00734)
Assay: Binding affinity determined against human alpha thrombin
Give your result in µM as a bare value.

Ask: Provide only the value of recorded Ki for CN[C@H](Cc1ccccc1)C(=O)N1CCC[C@H]1C(=O)N[C@@H](C(=O)c1nc2ccccc2s1)C1CCC(CN)CC1 (stereo not given in full)
Result: 1.45

Ask: Provide only the value of recorded Ki for CN[C@H](Cc1ccccc1)C(=O)N1CCC[C@H]1C(=O)N[C@H](CCCCN)C(=O)c1nc2ccccc2s1
Result: 0.21

Ask: Provide only the value of recorded Ki for CN[C@H](Cc1ccccc1)C(=O)N1CCC[C@H]1C(=O)N[C@@H](Cc1ccccc1)C(=O)c1nc2ccccc2s1
Result: 7.1

Ask: Provide only the value of recorded Ki for CN[C@H](Cc1ccccc1)C(=O)N1CCC[C@H]1C(=O)N[C@@H](CCCN=C(N)N)C(O)c1nc2ccccc2s1 (stereo in doubt; form 2)
Result: 1.6

Ask: Provide only the value of recorded Ki for CN[C@H](Cc1ccccc1)C(=O)N1CCC[C@H]1C(=O)NC(CCCN=C(N)N)C(=O)c1nc(C(=O)O)cs1 (stereo not given in full)
Result: 0.0091

Ask: Provide only the value of recorded Ki for CNC(C(=O)N1CCC[C@H]1C(=O)NC(CCCN=C(N)N)C(=O)c1nc2ccccc2s1)(c1ccccc1)c1ccccc1 (stereo not given in full)
Result: 0.0021

Ask: Provide only the value of recorded Ki for CCS(=O)(=O)N[C@H](Cc1ccccc1)C(=O)N1CCC[C@H]1C(=O)NC(C(=O)c1nc2ccccc2s1)C1CCC(N)CC1 (stereo not given in full)
Result: 0.053

----------
Molecular target: Serine protease 1 (Bos taurus, UniProt P00760)
Experiment: Inhibitory concentration against bovine trypsin
assay-endpoint: IC50 (nM)
Give your result in nM as a bare value.

compound: N=C(N)NCCCC(NC(=O)[C@@H]1CCCN1C(=O)N[C@H](C=O)Cc1ccccc1)C(=O)c1nc2ccccc2s1 (some centres undefined)
units-label: nM
recorded-measurement: 5.8

Ask: Provide only the value of recorded IC50 for CN[C@@H](C(=O)N1CCC[C@H]1C(=O)NC(CCCN=C(N)N)C(=O)c1nc2ccccc2s1)C(c1ccccc1)c1ccccc1 (some centres undefined)
Result: 352

Ask: Provide only the value of recorded IC50 for CN[C@H](Cc1ccccc1)C(=O)N1CCC[C@H]1C(=O)N[C@@H](Cc1ccc(C(=N)N)cc1)C(=O)c1nc2ccccc2s1
Result: 540

Ask: Provide only the value of recorded IC50 for CN[C@H](Cc1ccccc1)C(=O)N1CCC[C@H]1C(=O)N[C@@H](CCCCN=C(N)N)C(=O)c1nc2ccccc2s1
Result: 630

// data source = ChEMBL document CHEMBL1142732
